Tested on: K4 kissing-loop RNA reporter;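 also: bound reporter read as fluorescence of individual clusters on recovered sequencing chips by microscopy, with normalized cluster intensities fitted with a binding model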
assayMethodText: apparent KD of K4 kissing-loop reporter; higher = weaker reporter binding
appliedConditions: Eterna round: R107; input ligand: FMN 200 uM
The following sequences are listed with their measured apparent KD of K4 kissing-loop reporter values.
Answer with a number only, understood to be in nM.

## Input Provide only the value of recorded apparent KD of K4 kissing-loop reporter for UCUCCAGUGAUGUUGGAGACGGAUGAGGAAGGAGCGGGCACGUGCCCAGGUAGGUCGCCUCGAAAGCCCUGUAGCAUCGCGAAAC [Disoribe]
## Output 281

## Input Retrieve apparent KD of K4 kissing-loop reporter measured for GUGGUUUACGUAGGAUAUCGGUGAUGAGUAAAUGGAGUGAUGUUCCGAGAUUGAAUAUGAGAUGAGCGAGAAGGGCGGUUUAUGC [FMN B Same State; Euporia Solution 3] and print it.
## Output 60.8

## Input Answer with the recorded apparent KD of K4 kissing-loop reporter for the sequence listed here: CUUGGAAGGACGGCCGCCACUCGACAGUGAUGUUGUCCGAGUGGGUAGCGCAGUGAUGUUGUGUCGAGGACCGGGUCCUAGGAAU [Exclusion Tryptophan B GF 27]
## Output 185

## Input Supply reported apparent KD of K4 kissing-loop reporter belonging to this sequence: GGGUUUGCCGGAAGGAGCGCACUAUGGAGUGAUGUUCCAUGACCGCACAGCUUGCGGUCAGUGCAGGUAGGUCGCCGGUAGCGUU [Maedzaus]
## Output 205

## Input Provide only the value of recorded apparent KD of K4 kissing-loop reporter for UGUACUAUUGUGAGUGAUGUUCACUUCGAUACCAGCAGAGCGAUCUGCCCUUGGCAGCGAGUUAACUGCCGAAAGGCAAGGAUUA [Theo B SS t9]
## Output 535

## Input Find the measured apparent KD of K4 kissing-loop reporter of UGGACAUGACUCGAUAAGAGUCAAUGAGAUACCAGUGACGAAAGUCACCCUUGGCAGCUCAACUGCCAGUGAUGUUGGUAGUCCU [#SwitchBubble #StaticStem] and report it.
## Output 739
